EXPERIMENTAL TARGET: NK1 receptor (Meriones unguiculatus (Mongolian jird) (Gerbillus unguiculatus), UniProt Q5DUB1)
Sequence (Q5DUB1 whole entry): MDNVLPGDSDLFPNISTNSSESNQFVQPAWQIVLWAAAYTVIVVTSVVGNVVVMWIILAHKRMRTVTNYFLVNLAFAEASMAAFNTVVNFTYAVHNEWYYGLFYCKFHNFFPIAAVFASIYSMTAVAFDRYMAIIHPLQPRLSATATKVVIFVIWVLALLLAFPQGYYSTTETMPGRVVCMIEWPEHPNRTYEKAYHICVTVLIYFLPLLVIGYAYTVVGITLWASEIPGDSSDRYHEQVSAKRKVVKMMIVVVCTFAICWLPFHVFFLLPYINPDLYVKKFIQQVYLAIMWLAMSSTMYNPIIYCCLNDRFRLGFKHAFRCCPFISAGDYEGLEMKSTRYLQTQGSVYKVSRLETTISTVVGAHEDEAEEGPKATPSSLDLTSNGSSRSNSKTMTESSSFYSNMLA
METHOD DESCRIPTION: Effect on foot-tapping induced by NK1 receptor agonist GR73632
Type: in vivo
SETUP CONDITIONS: male gerbil, 0.1 mg/kg iv, GR73632 after four hours
Procedure: (1) Effect on Foot-Tapping […] A male gerbil (Japan SLC) was anesthetized with isoflurane, and 0.1 mg/kg of a test compound was administered from the jugular vein. […] After the administration, the gerbil was moved to an observation cage, and the foot-tapping period during 30 minutes after the recovery of the righting reflex was measured. The foot-tapping inhibition rate (%) of each test compound was calculated by the following equation. […]
READOUT LABEL: Inhibition (%), foot-tapping inhibition rate

## Input Reported Inhibition (%), foot-tapping inhibition rate for Cc1cc(F)ccc1-c1cc(C2CCC(C)(CC(=O)O)CC2)ncc1N(C)C(=O)C(C)(C)c1cc(C(F)(F)F)cc(C(F)(F)F)c1 (stereo not shown) : what is it?
## Output 100

## Input Repeat with Cc1cc(F)ccc1-c1cc([C@H]2CC[C@H](CC(=O)O)CC2)nc(C#N)c1N(C)C(=O)C(C)(C)c1cc(C(F)(F)F)cc(C(F)(F)F)c1
## Output 100

## Input Repeat with Cc1ccccc1-c1cc(C2CCC(CC(=O)O)CC2)nc(C#N)c1N(C)C(=O)C(C)(C)c1cc(C(F)(F)F)cc(C(F)(F)F)c1 (stereo not shown)
## Output 93

## Input Repeat with Cc1cc(F)ccc1-c1cc(C2CCC(CC(=O)O)CC2)nc(CO)c1N(C)C(=O)C(C)(C)c1cc(C(F)(F)F)cc(C(F)(F)F)c1 (stereo not shown)
## Output 95

## Input Repeat with Cc1cc(F)ccc1-c1cc(C2CCC(CC(=O)O)CC2)nc(C#N)c1N(C)C(=O)C(C)(C)c1cc(C(F)(F)F)cc(C(F)(F)F)c1 (stereo not shown)
## Output 100

## Input Repeat with Cc1cc(F)ccc1-c1cc([C@H]2CC[C@@H](CC(=O)O)CC2)ncc1N(C)C(=O)C(C)(C)c1cc(C(F)(F)F)cc(C(F)(F)F)c1
## Output 99

## Input Repeat with Cc1cc(F)ccc1-c1cc(C2CCC3(CC2)CC3C(=O)O)ncc1N(C)C(=O)C(C)(C)c1cc(C(F)(F)F)cc(C(F)(F)F)c1 (stereo not shown)
## Output 90

## Input Repeat with Cc1cc(F)ccc1-c1cc([C@H]2CC[C@@H](CC(=O)O)CC2)nc(C#N)c1N(C)C(=O)C(C)(C)c1cc(C(F)(F)F)cc(C(F)(F)F)c1
## Output 100

## Input Repeat with Cc1cc(F)ccc1-c1cc(C2(C)CCCC(CC(=O)O)C2)ncc1N(C)C(=O)C(C)(C)c1cc(C(F)(F)F)cc(C(F)(F)F)c1 (stereo not shown)
## Output 77

## Input Repeat with Cc1cc(F)ccc1-c1cc([C@H]2CC[C@H](CC(=O)O)CC2)ncc1N(C)C(=O)C(C)(C)c1cc(C(F)(F)F)cc(C(F)(F)F)c1
## Output 100

* * *

EXPERIMENTAL TARGET: human NK1 receptor (Homo sapiens (Human), UniProt P25103)
Sequence (P25103 whole entry): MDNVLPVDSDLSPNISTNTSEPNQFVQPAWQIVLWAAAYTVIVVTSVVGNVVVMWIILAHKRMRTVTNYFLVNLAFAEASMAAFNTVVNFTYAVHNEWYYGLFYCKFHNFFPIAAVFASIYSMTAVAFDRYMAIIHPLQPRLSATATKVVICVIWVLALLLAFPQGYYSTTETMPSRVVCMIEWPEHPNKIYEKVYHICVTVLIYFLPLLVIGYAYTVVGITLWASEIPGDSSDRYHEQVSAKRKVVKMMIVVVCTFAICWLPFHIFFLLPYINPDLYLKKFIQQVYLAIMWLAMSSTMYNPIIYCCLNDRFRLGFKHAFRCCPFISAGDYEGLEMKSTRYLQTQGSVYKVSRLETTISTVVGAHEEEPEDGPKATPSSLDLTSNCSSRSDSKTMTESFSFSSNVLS
METHOD DESCRIPTION: Affinity for human NK1 receptor (125I-substance P receptor binding test, membrane fraction)
SETUP CONDITIONS: membrane fraction of human NK1 receptor-expressing 293T cells; read-out: IC50 (nM), concentration required for 50% inhibition of 125I-substance P binding
READOUT LABEL: IC50 (nM)

a. Cc1cc(F)ccc1-c1cc([C@H]2CC[C@H](CC(=O)O)CC2)ncc1N(C)C(=O)C(C)(C)c1cc(C(F)(F)F)cc(C(F)(F)F)c1
b. Cc1cc(F)ccc1-c1cc(C2CCC(CC(=O)O)CC2)nc(CO)c1N(C)C(=O)C(C)(C)c1cc(C(F)(F)F)cc(C(F)(F)F)c1 (stereo not drawn)
## Input Between the two listed entries a and b , which has its IC50 at the higher number? Respond using the label that marks the chosen record.
## Output b
(b: 4.96 nM, a: 1.62 nM)

* * *

METHOD DESCRIPTION: Measurement of drug concentrations in the brain after foot-tapping
Assay type: in vivo
SETUP CONDITIONS: male gerbil, 0.1 mg/kg iv, after foot-tapping was finished
READOUT LABEL: Conc. (nM), drug concentration in the brain

Some solved cases for reference:
## Input Reported Conc. (nM), drug concentration in the brain for Cc1cc(F)ccc1-c1cc(C2CCC(C(=O)O)CC2)ncc1N(C)C(=O)C(C)(C)c1cc(C(F)(F)F)cc(C(F)(F)F)c1 (stereo not drawn) : what is it?
## Output 24

## Input Repeat with Cc1cc(F)ccc1-c1cc(C2CCC(C(C)C(=O)O)CC2)ncc1N(C)C(=O)C(C)(C)c1cc(C(F)(F)F)cc(C(F)(F)F)c1 (stereo not drawn)
## Output 42

## Input Repeat with Cc1cc(F)ccc1-c1cc([C@H]2CC[C@H](CC(=O)O)CC2)ncc1N(C)C(=O)C(C)(C)c1cc(C(F)(F)F)cc(C(F)(F)F)c1
## Output 51

a. Cc1cc(F)ccc1-c1cc([C@H]2CC[C@H](C(C)(C)C(=O)O)CC2)ncc1N(C)C(=O)C(C)(C)c1cc(C(F)(F)F)cc(C(F)(F)F)c1
b. Cc1cc(F)ccc1-c1cc(C2(C)CCCC(CC(=O)O)C2)ncc1N(C)C(=O)C(C)(C)c1cc(C(F)(F)F)cc(C(F)(F)F)c1 (stereo not drawn)
c. Cc1cc(F)ccc1-c1cc(C2CCC(CC(=O)O)CC2)nc(CO)c1N(C)C(=O)C(C)(C)c1cc(C(F)(F)F)cc(C(F)(F)F)c1 (stereo not drawn)
## Input Order the entries by their reported Conc. (nM), drug concentration in the brain, beginning at the minimum. I'd appreciate it if you listed the labels in the requested order.
## Output c, b, a

* * *

METHOD DESCRIPTION: Measurement of drug concentrations in the brain after foot-tapping
Type: in vivo
SETUP CONDITIONS: male gerbil, 0.1 mg/kg iv, after foot-tapping was finished
READOUT LABEL: Conc. (nM), drug concentration in the brain

## Input Reported Conc. (nM), drug concentration in the brain for Cc1cc(F)ccc1-c1cc(C2CCC3(CC2)CC3C(=O)O)ncc1N(C)C(=O)C(C)(C)c1cc(C(F)(F)F)cc(C(F)(F)F)c1 (stereo not drawn) : what is it?
## Output 24

## Input Repeat with Cc1ccccc1-c1cc(C2CCC(CC(=O)O)CC2)ncc1N(C)C(=O)C(C)(C)c1cc(C(F)(F)F)cc(C(F)(F)F)c1 (stereo not drawn)
## Output 47

## Input Repeat with Cc1cc(F)ccc1-c1cc(C2CCC(CC(=O)O)CC2)nc(Cl)c1N(C)C(=O)C(C)(C)c1cc(C(F)(F)F)cc(C(F)(F)F)c1 (stereo not drawn)
## Output 57

I. Cc1cc(F)ccc1-c1cc(C2CCC(CC(=O)O)CC2)nc(C#N)c1N(C)C(=O)C(C)(C)c1cc(C(F)(F)F)cc(C(F)(F)F)c1 (stereo not drawn)
II. Cc1cc(F)ccc1-c1cc(C2CCC(CCC(=O)O)CC2)ncc1N(C)C(=O)C(C)(C)c1cc(C(F)(F)F)cc(C(F)(F)F)c1 (stereo not drawn)
III. Cc1cc(F)ccc1-c1cc([C@H]2CC[C@H](CC(=O)O)CC2)nc(C#N)c1N(C)C(=O)C(C)(C)c1cc(C(F)(F)F)cc(C(F)(F)F)c1
## Input Order the entries by their reported Conc. (nM), drug concentration in the brain, beginning at the minimum. I'd appreciate it if you listed the labels in the requested order.
## Output II, I, III

* * *

EXPERIMENTAL TARGET: NK1 receptor (Meriones unguiculatus (Mongolian jird) (Gerbillus unguiculatus))
METHOD DESCRIPTION: Effect on foot-tapping induced by NK1 receptor agonist GR73632
Format: in vivo
SETUP CONDITIONS: male gerbil, 0.1 mg/kg iv, GR73632 after four hours
READOUT LABEL: Inhibition (%), foot-tapping inhibition rate

## Input Reported Inhibition (%), foot-tapping inhibition rate for Cc1cc(F)ccc1-c1cc(C2CCC(C(=O)O)CC2)ncc1N(C)C(=O)C(C)(C)c1cc(C(F)(F)F)cc(C(F)(F)F)c1 (stereo not drawn) : what is it?
## Output 98

## Input Repeat with Cc1cc(F)ccc1-c1cc(C2CCC(C(C)C(=O)O)CC2)ncc1N(C)C(=O)C(C)(C)c1cc(C(F)(F)F)cc(C(F)(F)F)c1 (stereo not drawn)
## Output 97

## Input Repeat with Cc1ccccc1-c1cc(C2CCC(CC(=O)O)CC2)ncc1N(C)C(=O)C(C)(C)c1cc(C(F)(F)F)cc(C(F)(F)F)c1 (stereo not drawn)
## Output 75

## Input Repeat with Cc1cc(F)ccc1-c1cc([C@H]2CC[C@H](C(C)(C)C(=O)O)CC2)ncc1N(C)C(=O)C(C)(C)c1cc(C(F)(F)F)cc(C(F)(F)F)c1
## Output 95

## Input Repeat with Cc1cc(F)ccc1-c1cc(C2CCCC(CC(=O)O)C2)ncc1N(C)C(=O)C(C)(C)c1cc(C(F)(F)F)cc(C(F)(F)F)c1 (stereo not drawn)
## Output 100

## Input Repeat with Cc1cc(F)ccc1-c1cc(C2CCC(CC(=O)O)CC2)nc(C)c1N(C)C(=O)C(C)(C)c1cc(C(F)(F)F)cc(C(F)(F)F)c1 (stereo not drawn)
## Output 100
